B1: TNXB (parent)
chain: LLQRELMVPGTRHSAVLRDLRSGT

- Variants of: B1
- assay-protocol: protein stability index of a GFP-peptide fusion (GPS, HEK-293T) (PSI 1-6); higher = more stable;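 further: lentivirally expressed fusions sorted by FACS into six bins by GFP to DsRed ratio, PSI derived from sequencing read proportions per bin multiplied by bin number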
- test-conditions: c terminus: a fixed tail appended
quantity-measured: protein stability index
Answers are plain numbers.

Examples with their reported protein stability index follow.
[[record]]
mutant_designation = "S14F"
observed_result = 2.32

[[record]]
mutant_designation = "L1D"
observed_result = 2.71

[[record]]
mutant_designation = "E5C"
observed_result = 1.67

[[record]]
mutant_designation = "R12N"
observed_result = 2.76

[[record]]
mutant_designation = "M7S"
observed_result = 3.42

[[record]]
mutant_designation = "A15Y"
observed_result = 1.62

[[record]]
mutant_designation = "H13E"
observed_result = 2.82

[[record]]
mutant_designation = "L2Y"
observed_result = 2.71


Look at each variant and report its protein stability index.
1. R18C
2. T24G
3. R4H
4. L6N
5. V16P
6. R18Y

Outgoing:
2.42
3.51
2.73
2.9
2.82
2.07

Look at each variant and report its protein stability index.
1. L6R
2. T11Q
3. T11W
4. Q3N
5. E5D
6. H13Q

Outgoing:
[2.59, 2.88, 1.69, 2.38, 2.81, 3]

Look at each variant and report its protein stability index.
1. T11R
2. L1P

Outgoing:
[2.13, 2.53]
